Tested on: glucose-6-phosphate dehydrogenase-6-phosphogluconolactonase (Plasmodium falciparum 3D7)
Assay: inhibition of malaria parasite G6PD (PfGluPho) – biochemical, fluorescence intensity, uHTS, primary screen (AID 504690);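 note: 0% = DMSO wells with substrate and 100% = DMSO wells lacking glucose-6-phosphate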
Conditions: PfGluPho enzyme, NADPH resazurin-diaphorase fluorescence; at 20 µM
The campaign covered roughly 350,000 compounds. About 2,700 (0.77%) were called active.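 Rule for the calls: active = inhibition reaching at least a set limit at 20 µM in the primary screen (cut at about 59% in these data); inactive = the rest.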 The entries come from a sample that favours actives as a whole.
Form entry, call: pick from 1.0 = active, 0.0 = inactive

Example entries begin here.
Prompt line: Just curious, what result did COc1cccc(C(=O)Nc2ccc3nc4n(c(=O)c3c2)CCCCC4)c1 get here?
Response line: 0.0

Prompt line: Just curious, what result did CCCCn1nc(C(=O)Nc2ccc(S(=O)(=O)Nc3ncccn3)cc2)c2ccccc2c1=O get here?
Response line: 0.0

Prompt line: Just curious, what result did O=C(COC(=O)c1cccc(Cl)c1)NC1CCCCCCC1 get here?
Response line: 0.0

Prompt line: Just curious, what result did CCOC(=O)C1C(=O)OC2(CCCC2)C1C(=O)OCC (stereo not drawn) get here?
Response line: 0.0

Further cases:
Prompt line: Just curious, what result did CCOC(=O)c1cc(-c2sc(NC(=O)c3ccccc3)nc2C)n(CCO)n1 get here?
Response line: 0.0

Prompt line: Just curious, what result did CN(Cc1nc(-c2cnccn2)no1)Cc1n[nH]c2c1CCCCC2 get here?
Response line: 0.0

* * *

System: glucose-6-phosphate dehydrogenase-6-phosphogluconolactonase (Plasmodium falciparum 3D7)
Assay: inhibition of malaria parasite G6PD (PfGluPho) – biochemical, fluorescence intensity, uHTS, primary screen (AID 504690);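 note: 0% = DMSO wells with substrate and 100% = DMSO wells lacking glucose-6-phosphate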
Details: PfGluPho enzyme, NADPH resazurin-diaphorase fluorescence; at 20 µM; stronger effect = higher value
About 2,700 (0.77%) of roughly 350,000 compounds were called active. The list comes from a sample in which actives are over-represented; it also holds close analogues and randomly drawn compounds.
Recorded endpoint: inhibition (%)
Output spec: scalar in %, unitless text.

Some molecules with recorded inhibition:
Prompt line: Return value of inhibition for input CCCCn1c(N)c(N(CC(C)C)C(=O)c2cccc(S(=O)(=O)N3CC(C)OC(C)C3)c2)c(=O)[nH]c1=O (configuration not stated) , no commentary.
Response line: -1.62

Prompt line: Return value of inhibition for input Cc1ccc(CSc2ccc(S(=O)(=O)N3CCCCC3)cn2)cc1 , no commentary.
Response line: 10.9

Prompt line: Return value of inhibition for input CCOC(=O)CSc1nnc(NC(=O)c2cccc(S(=O)(=O)N3CCCC3)c2)s1 , no commentary.
Response line: -21.8

Prompt line: Return value of inhibition for input O=C(O)C(=Cc1ccc([N+](=O)[O-])cc1)CCc1ccccc1 , no commentary.
Response line: -27.5

Prompt line: Return value of inhibition for input O=C(CNS(=O)(=O)c1ccc(Br)s1)N1CCN(C(=O)c2ccco2)CC1 , no commentary.
Response line: -12.2

Prompt line: Return value of inhibition for input Cc1ccc(S(=O)(=O)N2C[C@@H](C)[C@]3(C2)[C@H](O)[C@H](OC(=O)NCc2ccccc2)C[C@H]2C(=O)N(c4ccccc4)C(=O)[C@H]23)cc1 , no commentary.
Response line: 24.5

Prompt line: Return value of inhibition for input Cc1ccc(OS(=O)(=O)c2ccc(-c3csc(C)n3)s2)c(C)c1 , no commentary.
Response line: 17.7

Prompt line: Return value of inhibition for input FC(F)(F)c1cccc(-c2cc3ccccc3nc2N2CCCC2)c1 , no commentary.
Response line: 13.8

Prompt line: Return value of inhibition for input CC(C)(C)n1ncc2c(=O)n(Cc3c(Cl)cccc3Br)cnc21 , no commentary.
Response line: -2.98

Prompt line: Return value of inhibition for input CC(C)Oc1ccc(C(=O)NC(C)(C)CO)cc1 , no commentary.
Response line: -5.29

Let's switch to this molecule now.
Prompt line: Return value of inhibition for input CN1CCN(c2ccc(NC(=O)c3ccc4c(c3)OCCO4)cc2Cl)CC1 , no commentary.
Response line: 68.3
